// data source = ChEMBL document CHEMBL5032528

# measurement_notes: Stability in human plasma assessed as half life
# Assay type: ADME, cell-free
assay_metric: half-life (h)
Respond with the bare value in h.

Ask: Please look up its half-life: CC(C)(F)CN1CCc2cc(O)ccc2C1c1ccc(OCCCCCCC(=O)NO)cc1 (stereo unspecified)
Result: 7.64

* * *

# tested_target: UniProt:Q13547
# Sequence (Q13547 whole entry): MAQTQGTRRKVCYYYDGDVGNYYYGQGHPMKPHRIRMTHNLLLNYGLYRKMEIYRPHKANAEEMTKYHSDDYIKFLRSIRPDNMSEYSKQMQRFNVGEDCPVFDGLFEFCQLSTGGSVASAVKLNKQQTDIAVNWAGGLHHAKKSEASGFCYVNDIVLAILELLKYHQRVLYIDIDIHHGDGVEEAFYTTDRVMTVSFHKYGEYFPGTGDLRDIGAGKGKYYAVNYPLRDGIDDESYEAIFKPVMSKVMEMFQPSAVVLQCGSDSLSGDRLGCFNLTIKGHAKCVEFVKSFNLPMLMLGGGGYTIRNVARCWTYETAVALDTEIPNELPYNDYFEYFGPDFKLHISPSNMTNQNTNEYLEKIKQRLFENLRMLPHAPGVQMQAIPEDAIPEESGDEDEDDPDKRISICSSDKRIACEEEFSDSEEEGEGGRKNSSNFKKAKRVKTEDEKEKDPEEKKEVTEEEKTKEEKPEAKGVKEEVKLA
assay_metric: IC50 (nM)
Respond with the bare value in nM.

Ask: Please look up its IC50: CC(C)(F)CN1CCc2cc(O)ccc2C1c1ccc(OCCCCCCC(=O)NO)cc1 (stereo unspecified)
Result: 582

* * *

# tested_target: Protein deacetylase HDAC6 (Homo sapiens)
# Sequence (Q9UBN7 whole entry): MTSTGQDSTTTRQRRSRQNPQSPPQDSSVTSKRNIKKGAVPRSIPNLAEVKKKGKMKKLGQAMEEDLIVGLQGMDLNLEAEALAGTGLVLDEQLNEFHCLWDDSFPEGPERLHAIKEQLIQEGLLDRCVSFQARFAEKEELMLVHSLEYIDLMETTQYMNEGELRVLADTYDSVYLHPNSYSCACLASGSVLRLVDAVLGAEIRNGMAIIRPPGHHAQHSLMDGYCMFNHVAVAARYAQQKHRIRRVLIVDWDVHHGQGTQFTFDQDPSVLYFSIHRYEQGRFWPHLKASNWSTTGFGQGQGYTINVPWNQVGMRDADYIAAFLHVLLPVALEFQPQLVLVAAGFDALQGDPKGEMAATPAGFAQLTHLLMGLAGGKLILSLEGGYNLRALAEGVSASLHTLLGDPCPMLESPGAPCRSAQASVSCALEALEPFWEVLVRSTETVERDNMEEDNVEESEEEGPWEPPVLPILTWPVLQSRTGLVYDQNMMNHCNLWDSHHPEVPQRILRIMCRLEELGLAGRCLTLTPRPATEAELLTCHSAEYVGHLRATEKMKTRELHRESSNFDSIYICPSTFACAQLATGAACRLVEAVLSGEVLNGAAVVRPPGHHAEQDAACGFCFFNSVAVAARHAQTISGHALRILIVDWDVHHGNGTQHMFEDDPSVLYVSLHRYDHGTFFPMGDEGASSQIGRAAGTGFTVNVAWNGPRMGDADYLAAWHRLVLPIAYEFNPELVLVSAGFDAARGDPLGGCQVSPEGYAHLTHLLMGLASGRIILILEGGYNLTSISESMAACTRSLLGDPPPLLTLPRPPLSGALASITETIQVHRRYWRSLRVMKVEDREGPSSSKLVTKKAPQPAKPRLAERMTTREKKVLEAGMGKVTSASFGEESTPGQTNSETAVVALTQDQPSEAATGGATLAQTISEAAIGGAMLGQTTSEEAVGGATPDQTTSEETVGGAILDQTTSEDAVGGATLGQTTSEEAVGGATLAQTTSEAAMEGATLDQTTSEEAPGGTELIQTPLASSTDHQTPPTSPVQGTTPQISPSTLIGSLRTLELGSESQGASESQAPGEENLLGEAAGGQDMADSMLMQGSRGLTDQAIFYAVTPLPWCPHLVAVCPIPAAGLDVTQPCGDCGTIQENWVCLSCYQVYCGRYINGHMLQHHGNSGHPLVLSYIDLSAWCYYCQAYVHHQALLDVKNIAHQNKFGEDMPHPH
assay_metric: pIC50
For clarity, pIC50 is expressed as the negative log10 of concentration in mol/L.

Ask: For Protein deacetylase HDAC6 (Homo sapiens), provide pIC50 of CC(C)(F)CN1CCc2cc(O)ccc2C1c1ccc(OC2CN(CC(=O)NO)C2)cc1 (stereo unspecified) please.
Result: 6.76
